Assay: yeast display, Sf9 membrane polyspecificity reagent, FACS + sequencing; frameworks hold sequencing errors
reported property: polyreactivity (PSR sort gate)

[[record]]
polymer_sequence = "QVQLVESGGGLVQAGGSLRLSCAASGSIFTPNAMGWYRQAPGKERELVAAISRSGGSTYYADSVKGRFTISRDNAKNTVYLQMNSLKPEDTAVYYCAVDYRYYYRYTSGEYWGQGTQGTVSS"
value = "low polyreactivity"

[[record]]
polymer_sequence = "QVQLEESGGGLVQAGGSLRLSCAASGFTLRGYAMGWYRQAPGKERELVAAINGGGSTYYADSVKGRFTISRDNAKNTVYLQMNSLKPEDTAVYYCAVRIRKTAFRVLRYNYWGQGTQVTVSS"
value = "high polyreactivity"

[[record]]
polymer_sequence = "QVQLVESGAGLVQAGGSLRLSCAASRRIIYKYAMGWYSQAPGKERELVAAITSGGSTYYADSVKGRYTISRDNAKNTVDLQMNSLKPQDTAVYYCAASYARLSVWYDYWRQGTQVTVSS"
value = "high polyreactivity"

[[record]]
polymer_sequence = "QVQLVESGGGLVQAGGSLRLSCAASGSIFSVYVMGWYRQAPGKERELVAAISWSDSDTYYADSVKGRFTISRDNAKNTVYLQMNSLKPEDTAVYYCAAETFDYADYIANGSGEYDYWGQGTQGTVSS"
value = "high polyreactivity"

[[record]]
polymer_sequence = "QIQLVESGGGLVQAGGSLRLSCAASGSIFSKYAMGWYRQAPGKERELVAAISAGGGSTYYADSVKGRFTISRDNAKNTVYLQMNSLKPEDTAVYYCAARSRFRFDYWVQGTQVTVSS"
value = "high polyreactivity"

[[record]]
polymer_sequence = "QVQLVESGGGLVQAGGSLRLSCAASGFTFSRYAMGWYRQAPGKEREYVAAISWSGGSTYYADSVKGRFTISRDNAKNTVYLQMNSLKPEDTAVYNCNAGAQLLASQTRYDYWGQGTQVTVSS"
value = "low polyreactivity"

[[record]]
polymer_sequence = "QVQLVESGGGLVQAGGSLRLSCAASGRIFRGYAMGWYRQAPGKERELVATISAIGGSTYADSVKGRFTISRHNAKNTVYLQMNSLKPEDTAVYYCNVRKVYRYQYRFEYWGQGTQVTVSS"
value = "high polyreactivity"

[[record]]
polymer_sequence = "QVQLVESGGGLVQAGGSLRLSCAASGRIFCVNAMGWYRQAPGKERELVAAINVSGGITYYADSVKGRFTISRDNAKNTVYLQMKSLKPEDTAVYYCAAVHWTWYTYYGPDYDYWGQGTQVTVSS"
value = "low polyreactivity"

[[record]]
polymer_sequence = "QVQLVESGGGLVQAGGSLRLSCAASGSIFPRNAMGWYRQAPGKERELVASINSGGSTKYADSVKGRFTISRDNAKNTLYLQMNSLKPEDTAVYYCAAVRPWWRNKPQWPRYDYCGQGTQVTVSS"
value = "low polyreactivity"

[[record]]
polymer_sequence = "QVQLVESGGGLVQAGGSLRLSCAATGSTFKWYAMGWYIQAPGKERELVDSISWTGASTYYADSVKGRFTISRDKAKNTVYLQMNSLKPEDTAVYYCAADRTYYALLWTGRSRYDYWGQGTQVTVSS"
value = "high polyreactivity"

[[record]]
polymer_sequence = "QVQLVESGGGLVQAGGSLRLSCAASGRIFYYYAMGWYRQAPGKERELVAGIDSGDSTNYADSVKGRFTISRDNAKNTVYLQMNSLKPEDTAVYYCAALHYGGYFSYYPYYYWGQGTQVTVSS"
value = "low polyreactivity"

[[record]]
polymer_sequence = "QVQLVESGGGLVQAGGSLRLSCAASGGTFRNNAMGWYIQAPGKERELVAAISSSGTSTYYADSVKGRFTISRDNAKNTVYLQMNSLKPEDTAVYYCNADALGSPWWDHMDYWGQGTQVTVSS"
value = "low polyreactivity"

[[record]]
polymer_sequence = "QVQLVESGGGLVQAGGSLRLSCAASGIIFDYNAMGWYRQAPGKERELVASIDSGGSTNYADSVKGRFTISRDNAKNTVYLQMNSLKPEDTAVYYSNADDTTVSPWYYYYQSYYWGQGTQVTVSS"
value = "low polyreactivity"

[[record]]
polymer_sequence = "QVQLVESGGVLVQAGGSLRLSCAASGSTFRRYAMGWYRQAPGKERELVAAITTRGGSTYYADSVKGRFTISRDNAKNTVYLQMNSLKPEDTAVYYCARDYSTYLRTAGDYWGQGTQVTVSS"
value = "low polyreactivity"

[[record]]
polymer_sequence = "QVQLVESGGGLVQAGGSLRLSCAASGRIFQYNVMGWYRQAPGKERELVAAISSGGNTYYADSVKGRFTISRDNAKNTVYLQMNSLKPEDTAVYYCAADHYVPWPNYDYDYWGQGTQVTVSS"
value = "low polyreactivity"

[[record]]
polymer_sequence = "QVQLVESGGGLVQAGGSLRLSCAASGSTFGFYAMGWYTHAPGKERELVAGITRVGSTNYADSVKGRFTISRDNAKNTVYLQMNSLKPEVTAVYYCNRRYTPYTWPYGYWGQGTQVTVSS"
value = "high polyreactivity"

[[record]]
polymer_sequence = "QVQLVESGGGLVQAGGSLRLSCAASGRTLLYYAMGWYRQAPGKERELVAAISRSGGSTSYADSVKGRFTISRDNAKNTVYLQMNSLKPEDTAVYYCNAPRYYYWGQGTQVTVSS"
value = "high polyreactivity"

[[record]]
polymer_sequence = "QVQLVESGGGLVQAGGSLRLSCAASGSTFRIYAMGWYRQAPGKERELVAAISSGGRTNYADSVKGRFTISRDNAKNNVYLQMNSLKPEDTAVYYCNAVFLPTYHFDYWGQGTQVTVSS"
value = "high polyreactivity"

[[record]]
polymer_sequence = "PVQRVESGGGLVQAGGSLRLSCAASGRTFDSYAMGWYRQAPGKERELVAAISSRGTRTYYADSVKGRFTSSRDNAKNPVYLQINSLQPEDTAGYYCNAGGAYEYDYWGQGSQVTVSS"
value = "high polyreactivity"

[[record]]
polymer_sequence = "QVQLVESGGGLVQAGGSLRLSCAASGSTFQRYAMGWYRQAPGKERELVAAITIRGTRTYYADSVKGRFTISRDNAKNTVYLQMNSLKPEDTAVYYCAATYYWYGHPSRRYDYWGQGTQVTVSS"
value = "high polyreactivity"

[[record]]
polymer_sequence = "QVKLVESGGGLVQAGGSLRLSCAASGSTVVFNTMGWYRQAPGKERELVAAISTGDSTKYADSVKGRFTISRDNAKITVYLQMNSLKPVDTAVDYCAADTQDRTYYGWRQVGGYDYWGQGTQVTVSS"
value = "low polyreactivity"


---

Test: yeast display, Sf9 membrane polyspecificity reagent, FACS + sequencing; frameworks hold sequencing errors
reported property: polyreactivity (PSR sort gate)

[[record]]
polymer_sequence = "QFQLVESGGGLDQAGGSLRLICAASGITFDTNLMGWYRQAPGKERELVAAISARGGSTYYADSVKGRFTISRDNAKNTVYLQMNSLKPEDTAVYYCNAVIRPWQSYYYWGQGTQVTVSS"
value = "high polyreactivity"

[[record]]
polymer_sequence = "QVQLVESGGGLVQAGGSLRLSCAASGRIFSYNAMGWYRQAPGKERELVAAISYSGGRTYYADSVKGRFTISRDNAKNTVYLQMNSLKPEDTAVYYCAAAYGGSLRYTAGYYWGQGTQVTVSS"
value = "high polyreactivity"

[[record]]
polymer_sequence = "QVQLVESGGGLVQAGGSLRLSCAASGSIFFRNAMGWYRQAPGKERELVASITSGGSTYYADSVKGRFTISRDNAKNTVYLLMNSLKPEDTAVFYCAARLWHLSYAGQGGDYWGQGTQVTVSS"
value = "low polyreactivity"

[[record]]
polymer_sequence = "QVQLVESGGGLVQAGGSLRLSCAASGSTFRNYAMGWYRQAPGKERELVAAISGSGGRTNYADSVKGRFTISRDNAKNTVYLQMNSLKPEDTAVYYCNGRFPDWALSEISHSTTYGYWGQGTQVTVSS"
value = "low polyreactivity"

[[record]]
polymer_sequence = "QVQLVESGGVLVQAGGSLRLSCAATVFIFKGNAMGWYRQAPGKEREFVADISARGGSTYYADSVKGRFTISRDNAKNTVYLQMNTLKPEDTAVYYCAATTGLYTRYGYWGQGTQVTVSS"
value = "high polyreactivity"

[[record]]
polymer_sequence = "QVQLVESGGGLVQAGGSLRLSCAASGSILSSYAMGWYRQAPGKERELVAAISKSGTRTYYADSVKGRFTISRDNAKNTVYLQMNSLKPEDTAVYYCAVVYYGSIFVLEYDYWGQGTQVTVSS"
value = "high polyreactivity"

[[record]]
polymer_sequence = "QVQLEESGGGLVQAGGRIRLSCAASGRIFHGYAMGWYRQAPGKERELVAAISWRGDSTYYADSVKGRFTNSRDNAKNTVYLQMNSLKPEDTAVYYCNDLGENYQFNYWGLGTQVTVSS"
value = "low polyreactivity"

[[record]]
polymer_sequence = "QVQLEESGGGLVQAGGRLRLTCAASGFIFKLYAMGWYRQAPGKERELVAAISGNGGRTYYADSVKGRFTISRDNAKNTVYLQMNSLKPEDTAVDYCAARYVGVQRYYEFDYWGQGTQVTVSS"
value = "high polyreactivity"

[[record]]
polymer_sequence = "QVQLVESGGGLVQAGGSLRLSCAASGSTLTPNAMGWYRQAPGKERELVAAISRSGGSTYYADSVKGRFTISRDNAKNTVYLQRNSLKPEDTAVYYCRGYYIGIRAYGYWGQGTQVTVSS"
value = "high polyreactivity"

[[record]]
polymer_sequence = "QVQLVESGGGLVQAGGSLRLSCAASGRIFLSYAMGWYRQAPGKERELVAGITWNGGSTYYADSVKGRFTISRDNAKNTVYLQMNSLKPEDTAVFYCAADYFGFSYAGYNYWGQGTQVTVSS"
value = "low polyreactivity"

[[record]]
polymer_sequence = "QVQLVESGGGLVQAGGSLRLSCAASGFTFETNAMGWYRQEPGQERELVAAISYSGGSTYYADSVKGRFTISRDNAKNTVYLQMNSLKPEDNAVYYCNKYYRGIFKAHRDYWGQGTQVTVSS"
value = "low polyreactivity"

